Below: a set of entries, each annotated with reported log10(IC50).
system-name: cMET receptor tyrosine kinase (GST-cMET (969-1390)) (Homo sapiens, UniProt P08581)
Sequence (P08581 969-1390): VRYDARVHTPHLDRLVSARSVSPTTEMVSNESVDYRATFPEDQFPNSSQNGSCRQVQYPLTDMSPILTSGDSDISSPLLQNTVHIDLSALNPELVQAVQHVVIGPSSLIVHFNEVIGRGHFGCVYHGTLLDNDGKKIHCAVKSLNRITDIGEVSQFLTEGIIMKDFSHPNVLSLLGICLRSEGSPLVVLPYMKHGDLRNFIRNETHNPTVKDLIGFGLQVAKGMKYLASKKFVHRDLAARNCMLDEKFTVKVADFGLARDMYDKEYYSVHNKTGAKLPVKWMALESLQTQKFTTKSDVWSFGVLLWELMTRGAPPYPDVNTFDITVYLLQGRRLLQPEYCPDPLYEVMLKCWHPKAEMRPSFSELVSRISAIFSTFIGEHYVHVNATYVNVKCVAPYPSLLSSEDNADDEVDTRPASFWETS
assay-name: EPK cMET profiling assay (LanthaScreen TR-FRET antibody based kinase phosphorylation assay)
recorded-conditions: purified recombinant GST-cMET (969-1390), 2 μM ATP, 50 nM Fluorescein-PolyEAY, 60 minutes at room temperature; read-out: c-Met IC50
Reminder: these figures are log10 of reported IC50, in nM before transformation.

c1cnc2ccc(Cc3cnc4ccc(NCC5CCCO5)nn34)cc2c1 (stereo not drawn)    1.58
c1cnc2ccc(Cc3cnc4ccc(-c5cncnc5)nn34)cc2c1    2.08
CC(O)(c1c(F)cc2ncccc2c1F)c1cnc2ccc(-c3cnn(CCO)c3)nn12 (racemic)    2.41
CCC(CC)Nc1ccc2ncc(Cc3ccc4ncccc4c3)n2n1    1.87
CC(C)CNc1ccc2ncc(C(O)c3ccc4ncccc4c3)n2n1 (racemic)    2.35
C[C@H](c1ccc2ncccc2c1)c1cnc2ccc(-c3cnn(C)c3)nn12    2.73
Cn1ncc2cc(Cc3cnc4ccc(-c5cnn(CCO)c5)nn34)c(F)cc21    1.89
Cn1cc(-c2ccc3ncc(Cc4ccc5ncsc5c4)n3n2)cn1    1.51

Now for the compound whose log10(IC50) we want.
The value of log10(IC50) measured for the compound Cn1cc(-c2ccc3ncc(Cc4ccc5ncccc5c4)n3n2)cn1 turned out to be 1.15
